- Tested System: Toll-like receptor 2 (Homo sapiens, UniProt O60603)
- Sequence (O60603 whole entry): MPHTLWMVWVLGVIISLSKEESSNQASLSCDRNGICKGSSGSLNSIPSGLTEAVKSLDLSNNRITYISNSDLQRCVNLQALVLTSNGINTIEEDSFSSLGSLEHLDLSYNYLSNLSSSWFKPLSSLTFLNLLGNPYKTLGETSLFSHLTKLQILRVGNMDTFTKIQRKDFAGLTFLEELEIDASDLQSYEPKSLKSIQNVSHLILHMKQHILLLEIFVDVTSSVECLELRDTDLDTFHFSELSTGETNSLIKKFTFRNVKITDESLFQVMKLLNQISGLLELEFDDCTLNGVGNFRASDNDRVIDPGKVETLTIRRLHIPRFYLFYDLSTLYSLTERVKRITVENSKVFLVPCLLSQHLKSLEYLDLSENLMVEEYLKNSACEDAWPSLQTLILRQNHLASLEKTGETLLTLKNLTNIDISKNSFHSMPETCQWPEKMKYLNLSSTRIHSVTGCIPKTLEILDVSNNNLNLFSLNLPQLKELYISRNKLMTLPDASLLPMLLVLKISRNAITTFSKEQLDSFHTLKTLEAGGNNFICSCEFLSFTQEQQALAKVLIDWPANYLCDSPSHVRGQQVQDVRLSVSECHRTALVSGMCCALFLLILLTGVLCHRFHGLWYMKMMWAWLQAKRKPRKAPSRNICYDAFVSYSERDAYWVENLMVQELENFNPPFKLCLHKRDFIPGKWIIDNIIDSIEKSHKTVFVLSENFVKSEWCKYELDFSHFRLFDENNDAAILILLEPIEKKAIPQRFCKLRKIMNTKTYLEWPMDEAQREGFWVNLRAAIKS
- Assay Overview: Inhibition of TLR2 in HEK293 cells assessed as reduction in Pam2CSK4-induced IL8 production
- Format: cell-based
pIC50: −log10 of the molar value.
Property: pIC50

Incoming: Look at this compound and give its reported pIC50. "CC(C)(C)S(=O)(=O)c1cc2c(Nc3ccc4scnc4c3)ncnc2cc1OCCO"
Outgoing: < 5.00

====

- Tested System: Toll-like receptor 4 (Homo sapiens)
- Sequence (O00206 whole entry): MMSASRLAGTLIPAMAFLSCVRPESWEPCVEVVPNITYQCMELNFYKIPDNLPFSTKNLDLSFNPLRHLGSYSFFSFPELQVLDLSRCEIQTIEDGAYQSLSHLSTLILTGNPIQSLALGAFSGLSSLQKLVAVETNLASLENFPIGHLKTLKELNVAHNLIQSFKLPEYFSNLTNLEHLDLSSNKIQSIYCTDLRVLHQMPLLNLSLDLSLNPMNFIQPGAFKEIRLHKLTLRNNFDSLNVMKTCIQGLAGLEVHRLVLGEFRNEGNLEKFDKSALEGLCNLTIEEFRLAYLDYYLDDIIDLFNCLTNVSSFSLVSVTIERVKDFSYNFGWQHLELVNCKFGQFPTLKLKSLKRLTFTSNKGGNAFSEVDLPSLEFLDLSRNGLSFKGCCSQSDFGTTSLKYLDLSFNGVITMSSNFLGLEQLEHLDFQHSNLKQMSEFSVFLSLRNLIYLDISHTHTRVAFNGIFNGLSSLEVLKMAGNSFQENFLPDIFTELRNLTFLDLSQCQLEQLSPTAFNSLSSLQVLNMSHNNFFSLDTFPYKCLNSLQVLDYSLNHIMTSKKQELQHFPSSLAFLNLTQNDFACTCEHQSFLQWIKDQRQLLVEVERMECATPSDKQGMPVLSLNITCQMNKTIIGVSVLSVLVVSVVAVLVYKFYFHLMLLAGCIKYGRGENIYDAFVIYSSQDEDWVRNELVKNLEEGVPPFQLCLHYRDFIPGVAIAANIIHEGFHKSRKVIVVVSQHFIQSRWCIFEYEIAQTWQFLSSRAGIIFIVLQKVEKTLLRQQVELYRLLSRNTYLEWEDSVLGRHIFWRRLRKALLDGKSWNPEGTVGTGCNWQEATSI
- Assay Overview: Inhibition of TLR4 in human monocytes assessed as reduction in LPS-induced TNFalpha production
pIC50: −log10 of the molar value.
Property: pIC50

Incoming: Which value of pIC50 has been reported for "CC(C)(C)S(=O)(=O)c1cc2c(Nc3ccc4scnc4c3)ncnc2cc1OCCO" in the records?
Outgoing: < 5.00

====

- Assay Overview: Unbound fraction in human blood
- Assay type: ADME, tissue-based
Property: fraction unbound
API note: the answer field is a bare number with no unit suffix.

Incoming: Reported fraction unbound for "CC(C)(C)S(=O)(=O)c1cc2c(Nc3ccc4scnc4c3)ncnc2cc1OCCO" : what is it?
Outgoing: 0.069

====

- Assay Overview: Terminal half life in Sprague-Dawley rat at 2 mg/kg, po or 0.5 mg/kg, iv by LC/MS/MS analysis
- Format: ADME, organism-based
- Protocol Conditions: in vivo, read-out: beta t1/2 (converted)
Property: half-life (h)
Please give a number only; it is taken to be in h.

Incoming: Recorded half-life for "CC(C)(C)S(=O)(=O)c1cc2c(Nc3ccc4scnc4c3)ncnc2cc1OCCO" , please?
Outgoing: 4.4

====

- Assay Overview: Half life in rat blood
- Type: ADME, tissue-based
Property: half-life (min)
Note: unit min is implicit; provide only the numeric part.

Incoming: Return reported half-life; argument: "CC(C)(C)S(=O)(=O)c1cc2c(Nc3ccc4scnc4c3)ncnc2cc1OCCOP(=O)(O)O.[CaH2]"
Outgoing: 35

Taken from ChEMBL document CHEMBL4364295.
